I'd be grateful if you could share measured growth inhibition for these entries.
# protocolSummary: NCI Yeast Anticancer Drug Screen. Data for the bub3 strain (AID 167)
# experimentalParameters: S. cerevisiae bub3 mutant strain, at 50.0 µM, active compounds read high
Compounds without any hit were thinned out: in the full panel of roughly 79,000, 15% have a hit.
One number for each entry, in %.

Some compounds with known growth inhibition results, for comparison:
Query: Need growth inhibition of CC(=O)CC(=O)NCC#N , thanks.
Response: 11.8

Query: Need growth inhibition of CC(=O)O[C@H]1CC[C@]2(C)C3CC[C@]4(C)C([C@H](C)CCCC(C)C)CCC4[C@]3(/C=N/O)n3c(=O)n(-c4ccccc4)c(=O)n3[C@]2(/C=N\O)C1 (stereo not given in full) , thanks.
Response: 38.9

Query: Need growth inhibition of NNC(=O)N/N=C1\C(=O)N(c2ccc(Cl)c(Cl)c2)C(=O)C(=O)C1c1nc2ccccc2s1 (stereo not given) , thanks.
Response: 0

Query: Need growth inhibition of O=c1[nH]n(Cc2ccccn2)c2ccc([N+](=O)[O-])cc12 , thanks.
Response: 6.45

Kindly consider the entry below.
Query: Need growth inhibition of C[C@@H]1CC[C@]2(C)C3(C)CC[C@]2(OC3=O)[C@@]12CC(c1ccoc1)OC2=O (stereo not given in full) , thanks.
Response: -5.45
